Test system: motility
Experiment: animal or person
Type: in vivo
Details: Table II; motility inhibition; LD50/ED50

{"columns": ["compound", "readoutQualifier", "Therapeutical index"],
 "data": [
  ["COc1cccc(/C=C/C2=CC(=N/OCCCN3CCOCC3)/CC(C)(C)C2)c1", ">", 10.0],
  ["CN(C)CCCO/N=C1C=C(/C=C/c2ccc(Cl)cc2)CC(C)(C)C/1", "=", 17.0],
  ["CN1CCN(CCCO/N=C2C=C(/C=C/c3ccccc3)CC(C)(C)C/2)CC1", "=", 10.5],
  ["CC1(C)CC(/C=C/c2ccccc2)=CC(=N/OCCN2CCCCC2)/C1", "=", 12.3],
  ["COc1ccc(/C=C/C2=CC(=N/OCCCN(C)C)/CC(C)(C)C2)cc1OC", "=", 16.7],
  ["CN(C)CCO/N=C1C=C(/C=C/c2ccccc2)CC(C)(C)C/1", "=", 17.0],
  ["CC(CO/N=C1C=C(/C=C/c2ccccc2)CC(C)(C)C/1)CN(C)C (racemic)", "=", 18.0],
  ["CN(C)CCCO/N=C1C=C(/C=C/c2cccc(Cl)c2)CC(C)(C)C/1", "=", 11.8]
]}

* * *

Tested on: ulcus secretion
Assay: animal or person
Format: in vivo
Settings: Rattus norvegicus, po, 5 h
quantityMeasured: ED50

{"columns": ["molecule", "measurement"],
 "data": [
  ["COc1cccc(/C=C/C2=CC(=N/OCCN3CCOCC3)/CC(C)(C)C2)c1", "~200 mg/kg"],
  ["CC1(C)CC(/C=C/c2ccccc2Cl)=CC(=N/OCCN2CCCCC2)/C1", "~50 mg/kg"],
  ["COc1cc(C(=S)N2CCOCC2)cc(OC)c1OC [Trithiozine, reference compound]", "~240 mg/kg"],
  ["COc1cccc(/C=C/C2=CC(=N/OCCCN3CCOCC3)/CC(C)(C)C2)c1", "~150 mg/kg"],
  ["CC1(C)CC(/C=C/c2cccc(Cl)c2)=CC(=N/OCCCN2CCOCC2)/C1", "~100 mg/kg"]
]}

* * *

In this section, each of the compounds is paired with its reported Therapeutical index LD50 /ED50.
Test system: hexobarbital narcosis
Assay: Hexobarbital narcosis potentiating effect
Conditions: Table I; hexobarbital narcosis

{"columns": ["compound", "measuredTarget", "readoutQualifier", "Therapeutical index LD50 /ED50"],
 "data": [
  ["COc1cccc(/C=C/C2=CC(=N/OCCN3CCOCC3)/CC(C)(C)C2)c1", "hexobarbital narcosis", ">", 93.0],
  ["CC1(C)CC(/C=C/c2ccccc2)=CC(=N/OCCN2CCCCC2)/C1", "hexobarbital narcosis", "=", 46.0],
  ["CN(C)CCCO/N=C1C=C(/C=C/c2cccc(Cl)c2)CC(C)(C)C/1", "hexobarbital narcosis", "=", 11.1],
  ["COc1ccc(/C=C/C2=CC(=N/OCCCN(C)C)/CC(C)(C)C2)cc1", "hexobarbital narcosis", "=", 14.3],
  ["CC1(C)CC(/C=C/c2ccccc2)=CC(=N/OCCN2CCOCC2)/C1", "hexobarbital narcosis", "=", 123.0],
  ["CNC1=Nc2ccc(Cl)cc2C(c2ccccc2)=[N+]([O-])C1 [Chlordiazepoxid, reference compound]", "hexobarbital narcosis", "=", 62.0]
]}
